Details: buffer; pH 7.4; 200.0 µM
Let's look at some compounds and their measured solubility kinetic.

{"columns": ["COMPOUND", "RESULT"],
 "data": [
  ["COc1ccc(C(CC(=O)NCc2ccccc2)C(C)C)cc1 (stereo unspecified)", "10.1 µg/mL"],
  ["O=C1CC(c2ccc(Cl)cc2)CC(O)=C1C=NCCO (stereo unspecified)", "> 44.1 µg/mL"],
  ["Cc1cc(C(=O)CSc2nc(N)cc(=O)[nH]2)c(C)n1CC1CCCO1 (stereo unspecified)", "> 54.4 µg/mL"],
  ["C=CCn1c(SCC(=O)NC2(C)CCS(=O)(=O)C2)nc2ccccc21 (stereo unspecified)", "> 56.9 µg/mL"],
  ["O=C(COC(=O)C12CC3CC(CC(Br)(C3)C1)C2)Nc1c(F)cccc1F", "16.1 µg/mL"],
  ["Nc1nc(Nc2cccc(F)c2)nc(NCCO)c1[N+](=O)[O-]", "12.8 µg/mL"],
  ["Cn1ccnc1SCC(=O)Nc1cccc([N+](=O)[O-])c1", "42.4 µg/mL"],
  ["CN1CCN(C(=O)/C(=C\\c2cccs2)NC(=O)c2ccccc2)CC1", "> 53.3 µg/mL"]
]}

Would you mind telling me what solubility kinetic value was observed for CC1CN(C(=O)CCNC(=O)c2ccc(Cl)cc2)CC(C)O1 (stereo unspecified) ?
42.1 µg/mL

Proceed to Cc1cccn2c(=O)c(C=O)c(Nc3ccccc3)nc12
< 0.2 µg/mL

Proceed to O=C(Nc1nc(-c2ccccc2)cs1)c1ccco1
22.3 µg/mL

* * *

Let's look at some compounds and their measured log10(solubility kinetic).
Settings: buffer; pH 7.4; 200.0 µM
Log scale reminder: solubility kinetic in µg/mL, then log10 taken.

Look over these answered cases.
{"columns": ["COMPOUND", "QUANTITY_MEASURED", "QUANTITATIVE_READOUT"],
 "data": [
  ["Fc1ccc(-c2csc(-c3ccncc3)n2)cc1", "log10(solubility kinetic)", 0.11],
  ["CCOC(=O)C1(Cc2cccc(F)c2)CCN(C(=O)COC)CC1", "log10(solubility kinetic)", 1.67],
  ["COc1ccccc1OCCN(C#N)c1nc(N(C)C)nc(N(C)C)n1", "log10(solubility kinetic)", 0.80],
  ["COC(=O)c1sccc1NC(=O)c1ccccc1C(=O)O", "log10(solubility kinetic)", 1.60]
]}

Would you mind telling me what log10(solubility kinetic) value was observed for Cc1cc(=O)n2c(-c3ccc(Cl)cc3)csc2n1 ?
0.90

Proceed to Cc1[nH]c(=O)c(C#N)cc1-c1csc(-c2ccccc2)n1
-0.15

Proceed to CCOC(=O)Cc1csc(NC(=O)CN2CCN(CC)CC2)n1
0.58

Proceed to CCC(C)[C@H](NC(=O)NCc1ccc(OC)c(OC)c1)C(=O)O (some centres undefined)
1.60

Proceed to Cc1cccc(N2CCN(Cc3ccc([N+](=O)[O-])o3)CC2)c1C
0.79

Proceed to O=C(Nc1ccccc1C(=O)NCCCN1CCOCC1)c1ccc(F)cc1
1.74

* * *

Let's look at some molecules and their measured solubility kinetic.
Settings: buffer; pH 7.4; 200.0 µM

Look over these answered cases.
{"columns": ["MOLECULE", "solubility kinetic"],
 "data": [
  ["C1CNC(C23CC4CC(CC(C4)C2)C3)=N1", "> 30.6 µg/mL"],
  ["O=C(Nc1cc(S(=O)(=O)N2CCOCC2)ccc1N1CCOCC1)c1c(F)cccc1Cl", "2.2 µg/mL"],
  ["COc1ccc(C(=O)NC(CCSC)C(=O)NC2CC2)cc1 (stereo unspecified)", "> 48.4 µg/mL"],
  ["Cc1cc(CNC(=S)Nc2cccc(Cl)c2Cl)nn1C", "> 49.4 µg/mL"],
  ["O=C(O)CSc1ncnc2sc3c(c12)CCCC3", "> 42.1 µg/mL"]
]}

Would you mind telling me what solubility kinetic value was observed for CC(NCC#Cc1ccccc1)C(O)c1ccccc1.Cl (stereo unspecified) ?
44.8 µg/mL

* * *

Conditions: buffer; pH 7.4; 200.0 µM
Label criterion met when solubility kinetic is at or above 10 µg/mL; anything below gets criterion not met.

Worked set:
{"columns": ["COMPOUND", "LABEL_VALUE"],
 "data": [
  ["CC(NC(=O)c1cccc(S(=O)(=O)N(C)C)c1)C1CC2CCC1C2 (stereo not given)", "criterion met"],
  ["CC(C)c1ccc(NC(=O)C2CSC3(C)CCC(=O)N23)cc1 (stereo not given)", "criterion met"],
  ["Cc1nc(C)c(C(=O)O)s1", "criterion met"],
  ["O=C(COc1ncnc2ccccc12)Nc1ccccc1[N+](=O)[O-]", "criterion met"],
  ["O=C1CC(=O)N(c2cccc(C(F)(F)F)c2)C(=O)N1", "criterion met"],
  ["O=C1N=c2ccccc2=C1c1sc(=S)n(-c2ccc(O)cc2)c1O", "criterion not met"],
  ["CCc1ccc2[nH]c(C(=O)N(C)c3ccc(F)cc3F)cc2c1", "criterion not met"],
  ["Cc1cccc(NC(=O)CCNC(=O)c2ccccc2Cl)n1", "criterion met"],
  ["CCCc1nc2ccccc2c(=O)n1CC(=O)c1ccc(F)cc1", "criterion not met"],
  ["COC(=O)CNc1nc(Cl)nc(N2CCC(C)CC2)n1", "criterion met"]
]}

Hello, I need to know if CN(CC(=O)NC(=O)NC1CCCCC1)c1ccccc1 has measured solubility kinetic not below 10 µg/mL. Thanks!
criterion not met

Proceed to O=C(COC(=O)C1CC1)Nc1ccc(S(=O)(=O)N2CCOCC2)cc1
criterion met

Proceed to COc1cc(OC)cc(C(=O)NN2CCOCC2)c1
criterion met

Proceed to Cc1cc(C=C2C(=O)N(C)C(=S)N(C)C2=O)c(C)n1-c1cccnc1
criterion met

Proceed to CC1(C)CN=C(Nc2ccc(F)c(Cl)c2)S1
criterion not met

Proceed to O=C(N/N=C/c1cccnc1)c1ccccc1Br
criterion met

Proceed to O=C(Nc1ccccc1)C(=O)Nc1cccnc1
criterion not met

* * *

Conditions: buffer; pH 7.4; 200.0 µM
QUANTITY_MEASURED: solubility kinetic (µg/mL)
Reply numerically in µg/mL, unit not repeated.

{"columns": ["MOLECULE", "solubility kinetic / µg/mL"],
 "data": [
  ["CC(C)N(Cc1ccccc1)S(=O)(=O)c1ccc(F)cc1", 12]
]}

Would you mind telling me what solubility kinetic value was observed for CN(Cc1ccc(C(F)(F)F)cc1)C(=O)C1CC(=O)N(Cc2ccco2)C1 (stereo not drawn) ?
51.8

Proceed to COc1ccc(N2CCN(S(=O)(=O)c3cnc[nH]3)CC2)cc1
3

Proceed to C/C(=N\OC(=O)c1ccccc1)c1c(C)nc2cc(C)ccn12
44.7

* * *

Conditions: buffer; pH 7.4; 200.0 µM
Let's look at some molecules and their measured solubility kinetic.
Reply numerically in µg/mL, unit not repeated.

Look over these answered cases.
{"columns": ["MOLECULE", "QUANTITY_MEASURED", "QUANTITATIVE_READOUT"],
 "data": [
  ["O=C(Nc1ccc(F)cc1)c1cccc(N2C(=O)c3ccccc3C2=O)c1", "solubility kinetic", 0.7],
  ["S=C(NCCN1CCOCC1)NC1CCCCC1", "solubility kinetic", 38.5],
  ["C=CCn1c(NCc2ccccc2OC)nc2ccccc21", "solubility kinetic", 30.2]
]}

Would you mind telling me what solubility kinetic value was observed for N#Cc1c(C(F)(F)F)cc(-c2cccs2)nc1SCC(=O)O ?
46.1

Proceed to CCCCNC(=O)COC(=O)c1ccccc1F
37.9

Proceed to COc1ccc(NC(=O)CC(C)CC(=O)NCc2ccc(F)cc2)c(OC)c1 (stereo not given)
6.8

Proceed to CSc1ccccc1NC(=O)CN(C)C(=O)COc1ncnc2ccccc12
45.1

Proceed to CN(C(=O)COC(=O)c1ccc(Cl)cc1N)C1CCCCC1
0.7

Proceed to N#Cc1cc(N2CCOCC2)nc2ccccc12
15.3

Proceed to Fc1ccccc1NC(=S)NC1CCCC1
35.2

Proceed to CCCn1c(C(O)c2cccc(OC)c2)nc2ccccc21 (stereo not given)
39.4

* * *

Settings: buffer; pH 7.4; 200.0 µM
Let's look at some compounds and their measured solubility kinetic.
Reply numerically in µg/mL, unit not repeated.

Look over these answered cases.
{"columns": ["COMPOUND", "solubility kinetic (µg/mL)"],
 "data": [
  ["O=C(COC(=O)/C=C/c1cccc([N+](=O)[O-])c1)Nc1cccnc1Cl", 2.1],
  ["COc1ccccc1-c1cn(-c2ccccc2)c(=S)[nH]1", 3.8],
  ["Cc1oncc1C(=O)Nc1cccc2ccccc12", 34]
]}

Would you mind telling me what solubility kinetic value was observed for Cc1ccc(NC2CCCN(C(=O)c3cccs3)C2)cc1C (centres undefined) ?
47.1

Proceed to Cc1cccc2cc(C#N)c(N3CCOCC3)nc12
1.7

Proceed to O=C(Cn1c(=O)oc2ccccc21)Nc1ccc(Br)cc1
2.1

Proceed to CC1CCCC(NC(=O)COC(=O)c2ccc(Br)o2)C1C (centres undefined)
8.2

Proceed to CCCCC(CC)C(=O)Nc1cc(=O)[nH]c2nc3ccccc3n12 (centres undefined)
1.9

Proceed to NC(=O)NC(=O)COC(=O)c1sc2ccccc2c1Cl
1.2

Proceed to Cc1cc(C)cc(NC(=S)NCc2ccncc2)c1
20.6

Proceed to O=C(COC(=O)c1ccc(OC(F)F)cc1)NCc1cccs1
35.5

Proceed to CC(=O)Nc1c(-c2ccc3ccccc3c2)nc2ccccn12
10.7

Proceed to O=C(COC(=O)C1CCCCC1)Nc1cc([N+](=O)[O-])ccc1F
36.4

Proceed to Cc1cc(C(=O)COc2cc(F)ccc2[N+](=O)[O-])c(C)n1CC1CCCO1 (centres undefined)
34.4

Proceed to CCCCc1ccc(NC(=O)Nc2cnccn2)cc1
1.1
